SYSTEM TESTED: Intercellular adhesion molecule (ICAM-1), Integrin alpha-L/beta-2 (Homo sapiens, UniProt P05107+P05362+P20701)
Sequence (P20701 whole entry): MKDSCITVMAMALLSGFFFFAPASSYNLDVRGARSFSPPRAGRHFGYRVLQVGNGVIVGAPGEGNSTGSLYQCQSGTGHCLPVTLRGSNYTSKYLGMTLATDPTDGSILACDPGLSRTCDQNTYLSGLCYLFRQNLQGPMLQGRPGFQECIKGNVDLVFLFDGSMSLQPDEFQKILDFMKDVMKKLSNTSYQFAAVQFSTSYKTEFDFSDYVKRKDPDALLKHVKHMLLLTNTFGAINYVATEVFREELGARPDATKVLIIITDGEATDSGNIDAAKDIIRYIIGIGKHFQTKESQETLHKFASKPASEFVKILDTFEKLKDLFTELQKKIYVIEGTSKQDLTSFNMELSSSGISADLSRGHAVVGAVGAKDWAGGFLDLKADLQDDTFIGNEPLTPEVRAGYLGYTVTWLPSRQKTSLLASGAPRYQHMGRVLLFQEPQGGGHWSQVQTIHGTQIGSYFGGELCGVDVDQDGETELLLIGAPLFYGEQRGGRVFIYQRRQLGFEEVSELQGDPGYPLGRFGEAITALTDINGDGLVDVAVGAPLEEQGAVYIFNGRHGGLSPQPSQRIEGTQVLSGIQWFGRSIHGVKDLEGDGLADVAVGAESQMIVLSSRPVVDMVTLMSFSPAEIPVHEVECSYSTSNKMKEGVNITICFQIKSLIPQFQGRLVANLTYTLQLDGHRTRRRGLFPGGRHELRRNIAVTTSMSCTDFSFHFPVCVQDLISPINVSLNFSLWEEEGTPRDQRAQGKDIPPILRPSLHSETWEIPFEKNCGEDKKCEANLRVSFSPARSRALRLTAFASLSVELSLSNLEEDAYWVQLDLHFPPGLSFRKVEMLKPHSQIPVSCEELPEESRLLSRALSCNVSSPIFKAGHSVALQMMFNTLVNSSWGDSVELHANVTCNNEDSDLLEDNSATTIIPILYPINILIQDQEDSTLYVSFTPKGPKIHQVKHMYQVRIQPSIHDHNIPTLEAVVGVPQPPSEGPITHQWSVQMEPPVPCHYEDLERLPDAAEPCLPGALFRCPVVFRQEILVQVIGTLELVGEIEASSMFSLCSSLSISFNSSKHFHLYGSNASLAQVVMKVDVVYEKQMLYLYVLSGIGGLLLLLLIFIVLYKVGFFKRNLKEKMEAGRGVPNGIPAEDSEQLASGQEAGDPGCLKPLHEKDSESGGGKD
Sequence (P05362 whole entry): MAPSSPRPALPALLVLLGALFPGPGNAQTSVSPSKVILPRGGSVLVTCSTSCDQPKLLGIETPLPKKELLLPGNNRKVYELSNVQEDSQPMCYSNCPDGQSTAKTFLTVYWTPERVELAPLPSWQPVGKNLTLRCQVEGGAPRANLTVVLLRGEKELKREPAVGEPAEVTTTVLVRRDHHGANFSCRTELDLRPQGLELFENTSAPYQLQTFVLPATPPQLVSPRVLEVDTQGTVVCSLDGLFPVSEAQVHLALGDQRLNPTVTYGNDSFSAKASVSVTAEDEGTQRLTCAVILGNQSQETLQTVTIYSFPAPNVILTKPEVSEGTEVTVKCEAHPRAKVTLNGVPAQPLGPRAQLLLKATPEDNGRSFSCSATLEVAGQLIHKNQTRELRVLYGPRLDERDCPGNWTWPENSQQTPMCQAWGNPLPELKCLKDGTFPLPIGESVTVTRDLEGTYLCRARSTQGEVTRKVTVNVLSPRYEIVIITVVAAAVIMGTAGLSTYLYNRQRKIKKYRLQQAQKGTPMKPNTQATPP
Sequence (P05107 whole entry): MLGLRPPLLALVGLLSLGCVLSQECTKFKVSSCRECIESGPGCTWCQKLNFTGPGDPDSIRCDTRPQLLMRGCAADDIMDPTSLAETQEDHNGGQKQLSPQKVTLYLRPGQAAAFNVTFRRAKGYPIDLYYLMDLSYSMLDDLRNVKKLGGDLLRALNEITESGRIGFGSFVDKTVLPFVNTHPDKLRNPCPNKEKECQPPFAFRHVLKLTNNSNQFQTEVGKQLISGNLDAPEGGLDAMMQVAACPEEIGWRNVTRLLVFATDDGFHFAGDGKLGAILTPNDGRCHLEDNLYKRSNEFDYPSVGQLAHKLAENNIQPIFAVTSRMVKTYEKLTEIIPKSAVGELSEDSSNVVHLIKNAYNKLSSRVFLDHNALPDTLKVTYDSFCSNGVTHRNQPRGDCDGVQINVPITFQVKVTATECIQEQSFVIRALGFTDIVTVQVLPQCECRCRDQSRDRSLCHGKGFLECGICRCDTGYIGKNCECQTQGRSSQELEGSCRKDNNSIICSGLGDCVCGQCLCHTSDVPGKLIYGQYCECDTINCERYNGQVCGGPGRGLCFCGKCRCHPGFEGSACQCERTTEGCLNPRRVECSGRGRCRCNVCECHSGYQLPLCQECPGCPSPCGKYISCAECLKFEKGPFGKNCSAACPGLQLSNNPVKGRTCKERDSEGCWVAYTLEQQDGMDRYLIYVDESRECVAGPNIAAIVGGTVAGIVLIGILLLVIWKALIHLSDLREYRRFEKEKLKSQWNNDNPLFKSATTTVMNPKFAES
TEST DESCRIPTION: Inhibition of LFA1/ICAM1 interaction in human Hut-78 cells
Type: cell-based
pIC50: −log10 of the molar value.
READOUT: pIC50

Example results:
STRUCTURE SMILES: O=C(N[C@@H](Cc1cn(-c2ccccc2)cn1)C(=O)O)c1c(Cl)cc2c(c1Cl)CCN(C(=O)c1ccc(Cl)cc1)C2
RESULT: < 6.00
//
STRUCTURE SMILES: CC(C)c1cnc(C[C@H](NC(=O)c2c(Cl)cc3c(c2Cl)CCN(C(=O)c2ccc(Cl)cc2)C3)C(=O)O)s1
RESULT: < 6.00

# next molecule below
Query string: Which pIC50 value is on record for NS(=O)(=O)n1cc(C[C@H](NC(=O)c2c(Cl)cc3c(c2Cl)CCN(C(=O)c2ccc(Cl)cc2)C3)C(=O)O)c2ccccc21 ?
Result string: < 6.00
